This collection of values is drawn from patent US9828386B2.

- Test system: BGC823 cell line
- experiment.notes: cells
- Type: cell-based
- measurement.conditions: Homo sapiens, BGC-823, 48 h, read-out: IC50 (μM) BGC823
observation.type: IC50 (µM)

[
  {
    "molecule": "COc1cc([C@@H]2c3cc4c(cc3[C@H](O)[C@H]3COC(=O)[C@H]23)OCO4)cc(OC)c1OC [podophyllotoxin, reference compound]",
    "obs.value": 75.8
  }
]

---

- Test system: A549 cell line
- experiment.notes: cells
- Assay type: cell-based
- measurement.conditions: Homo sapiens, A549, 48 h, read-out: IC50 (μM) A549
observation.type: IC50

[
  {
    "molecule": "COc1cc([C@@H]2c3cc4c(cc3[C@H](O)[C@H]3COC(=O)[C@H]23)OCO4)cc(OC)c1OC [podophyllotoxin, reference compound]",
    "assayed.target": "A549 cell line",
    "obs.value": "67.2 µM"
  }
]
